target: Drosophila OR98a (Drosophila melanogaster); construct: expressed in transfected cells; experiment: Calcium ion fluorescence (GCaMP6) assay, OR98a stable HEK293 cell line; assay type: cell-based; conditions: HEK293, read-out: Average response;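 also: ligand concentrations in µM final VOC concentration in well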
Sequence (Q9VAZ3 whole entry): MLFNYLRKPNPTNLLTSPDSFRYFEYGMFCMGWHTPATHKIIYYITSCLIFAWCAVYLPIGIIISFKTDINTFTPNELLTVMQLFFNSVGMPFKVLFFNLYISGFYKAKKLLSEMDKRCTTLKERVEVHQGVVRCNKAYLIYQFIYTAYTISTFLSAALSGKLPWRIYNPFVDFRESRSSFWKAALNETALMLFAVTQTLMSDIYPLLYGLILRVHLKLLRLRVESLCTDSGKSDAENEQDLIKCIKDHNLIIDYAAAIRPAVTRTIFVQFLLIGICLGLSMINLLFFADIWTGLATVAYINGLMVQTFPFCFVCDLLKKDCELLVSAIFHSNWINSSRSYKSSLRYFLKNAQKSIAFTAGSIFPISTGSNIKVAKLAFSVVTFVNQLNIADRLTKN
Sequence (Q9VNB5 whole entry partner): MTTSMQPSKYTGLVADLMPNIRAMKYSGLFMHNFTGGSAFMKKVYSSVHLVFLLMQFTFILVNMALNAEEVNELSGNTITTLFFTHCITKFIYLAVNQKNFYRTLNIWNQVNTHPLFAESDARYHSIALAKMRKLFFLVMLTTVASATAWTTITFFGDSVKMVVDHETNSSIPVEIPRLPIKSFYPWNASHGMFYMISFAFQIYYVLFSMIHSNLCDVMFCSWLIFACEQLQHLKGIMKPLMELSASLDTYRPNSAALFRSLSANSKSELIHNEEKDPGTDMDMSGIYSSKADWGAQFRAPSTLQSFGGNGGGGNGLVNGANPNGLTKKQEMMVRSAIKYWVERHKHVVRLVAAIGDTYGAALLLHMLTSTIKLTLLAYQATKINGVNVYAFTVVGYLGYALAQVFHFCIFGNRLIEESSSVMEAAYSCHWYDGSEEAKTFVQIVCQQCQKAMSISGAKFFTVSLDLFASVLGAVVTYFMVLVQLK
REPORTED_PROPERTY: activation at 1 µM (%)
Quick reminder: number only, in %, skip the unit.

Example molecules with recorded activation at 1 µM:
{"MOLECULE": "CCCCCC(C)O (centres unmarked)", "REPORTED_PROPERTY": "activation at 1 µM", "VALUE_OBSERVED": 3.25}
{"MOLECULE": "CC/C=C\\CCOC(C)=O [z3-hexenyl acetate]", "REPORTED_PROPERTY": "activation at 1 µM", "VALUE_OBSERVED": 0}
{"MOLECULE": "CCOC(=O)CC [ethyl propionate]", "REPORTED_PROPERTY": "activation at 1 µM", "VALUE_OBSERVED": 2}

Here is the next item to consider.
activation at 1 µM value, target or system Drosophila OR98a (Drosophila melanogaster), for CC1=CCC23CC1C(C)(C)C2CCC3C (centres unmarked) : 0

----------
DF norm AVERAGE OR13a listing for selected compounds.
target: Drosophila OR13a (Drosophila melanogaster); construct: expressed in transfected cells; test: Calcium ion fluorescence (GCaMP6) assay, OR13a stable HEK293 cell line; format: cell-based; conditions: concentration 10; normalized fluorescence change, values below 0.05 threshold given as 0
Sequence (Q9VXL0 whole entry): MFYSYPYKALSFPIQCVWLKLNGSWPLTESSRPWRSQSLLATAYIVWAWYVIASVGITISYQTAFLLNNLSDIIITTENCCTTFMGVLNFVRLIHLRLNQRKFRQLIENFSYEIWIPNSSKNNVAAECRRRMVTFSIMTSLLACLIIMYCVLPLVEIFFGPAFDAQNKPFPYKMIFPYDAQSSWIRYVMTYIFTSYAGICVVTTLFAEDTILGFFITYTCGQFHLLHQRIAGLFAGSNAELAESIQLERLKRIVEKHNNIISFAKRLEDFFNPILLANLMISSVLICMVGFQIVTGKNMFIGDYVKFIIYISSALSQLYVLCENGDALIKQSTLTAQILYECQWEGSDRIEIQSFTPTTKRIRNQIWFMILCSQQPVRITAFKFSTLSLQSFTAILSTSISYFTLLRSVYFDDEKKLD
Sequence (Q9VNB5 whole entry partner): as the sequence (Q9VNB5 whole entry partner) above
Response field accepts a number only; no unit should be typed.

Notebook: C=C1CC[C@H]2O[C@]2(C)CC[C@@H]2[C@@H]1CC2(C)C [(-)-caryophyllene oxide] , DF norm AVERAGE OR13a read as 0

Notebook: CCCCCC(C)=O [2-heptanone] , DF norm AVERAGE OR13a read as 0

Notebook: C=C1CC/C=C(\C)CC[C@@H]2[C@@H]1CC2(C)C [(-)-trans-caryophyllene] , DF norm AVERAGE OR13a read as 0.1145

Notebook: C=CC(O)CCCCC (centres unmarked) [1-octen-3-ol] , DF norm AVERAGE OR13a read as 0.4133

Notebook: Cc1ccc(C)c(C)c1 [1,2,4-trimethylbenzene] , DF norm AVERAGE OR13a read as 0

----------
molecular target: Drosophila OR98a (Drosophila melanogaster); construct: expressed in transfected cells; assay: Calcium ion fluorescence (GCaMP6) assay, OR98a stable HEK293 cell line; type: cell-based; settings: HEK293, read-out: Average response;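 also: ligand concentrations in µM final VOC concentration in well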
REPORTED_PROPERTY: activation at 100 µM (%)
Quick reminder: number only, in %, skip the unit.

Example compounds with recorded activation at 100 µM:
{"COMPOUND": "CC1=CC[C@@H](C(C)(C)O)CC1", "activation at 100 µM [%]": 6.45}
{"COMPOUND": "COC(=O)c1ccccc1 [methyl benzoate]", "activation at 100 µM [%]": 12}
{"COMPOUND": "CCCCC(C)O (stereo not shown)", "activation at 100 µM [%]": 14}
{"COMPOUND": "C=CCc1ccc(O)c(OC)c1", "activation at 100 µM [%]": 0}
{"COMPOUND": "C=CC(O)CCCCC (stereo not shown)", "activation at 100 µM [%]": 21}

Notebook: Cc1ccccc1C , activation at 100 µM read as 0

Notebook: C=CC(O)C/C=C\CC (stereo not shown) , activation at 100 µM read as 7

Notebook: CCc1ccccc1 , activation at 100 µM read as 0

Notebook: CC1=CCC2C(C1)C2(C)C (stereo not shown) , activation at 100 µM read as 0

Notebook: C=Cc1ccccc1 , activation at 100 µM read as 1.16
